- Test Summary: Visual observation of the solubility of DMPZ in various solvents (color change, naked eye)
- Type: physicochemical
- Measurement Parameters: organic solvent or mixture; propylene carbonate (PC); FIG. 3; read-out: solubility (concentration dissolved)
Observed Property: solubility

Need solubility of CN1c2ccccc2N(C)c2ccccc21 [DMPZ, 5,10-dihydro-5,10-dimethylphenazine] , thanks.
~20 mM

====

- Test Summary: Visual observation of the solubility of DMPZ in various solvents (color change, naked eye)
- Format: physicochemical
- Measurement Parameters: organic solvent or mixture; tetraethylene glycol dimethyl ether (TEGDME); FIG. 3; read-out: solubility (concentration dissolved)
Observed Property: solubility

Need solubility of CN1c2ccccc2N(C)c2ccccc21 [DMPZ, 5,10-dihydro-5,10-dimethylphenazine] , thanks.
≥ 100 mM
